Test system: BT-549 breast
Assay Comment: NCI tumour cell line growth inhibition, 48 h; in the data active means GI50 below about 0.43 µM; inactive means the rest
Respond using exactly one of the listed classes: 1 for active, -1 for inactive

Oc1c(Cl)cc(C(c2cc(Cl)c(O)c(Cl)c2)C(c2cc(Cl)c(O)c(Cl)c2)c2cc(Cl)c(O)c(Cl)c2)cc1Cl :: -1
Nc1cccc(-c2nc3sccn3c2-c2ccnc(NCCCNS(=O)(=O)c3ccc(C(F)(F)F)cc3)n2)c1 :: -1
C=CC[Se]C(=O)c1ccccc1OC(C)=O :: -1
COc1cccc(C2=NN(C(C)=O)C(c3cc(OC)c(OC)c(OC)c3)C2)c1 (stereo unspecified) :: -1
CCCCCCCCCCCCCCCCCC(=O)[O][Sn]([CH2]CCC)([CH2]CCC)[CH2]CCC :: 1

Now, please, on to the next compound.
Challenge: Each compound tested received a call. Report the one for "CCS(=O)(=O)c1ccc(OC)c(Nc2ncc(-c3cccc(-c4ccccc4F)c3)o2)c1" .
Response given: -1
